Every entry's value here was drawn from patent US12673975B2.

Please go through the items and note down their Kd.
# Study System: human integrin αvβ5 (Homo sapiens, UniProt P06756+P18084)
# Sequence (P06756 31-1048): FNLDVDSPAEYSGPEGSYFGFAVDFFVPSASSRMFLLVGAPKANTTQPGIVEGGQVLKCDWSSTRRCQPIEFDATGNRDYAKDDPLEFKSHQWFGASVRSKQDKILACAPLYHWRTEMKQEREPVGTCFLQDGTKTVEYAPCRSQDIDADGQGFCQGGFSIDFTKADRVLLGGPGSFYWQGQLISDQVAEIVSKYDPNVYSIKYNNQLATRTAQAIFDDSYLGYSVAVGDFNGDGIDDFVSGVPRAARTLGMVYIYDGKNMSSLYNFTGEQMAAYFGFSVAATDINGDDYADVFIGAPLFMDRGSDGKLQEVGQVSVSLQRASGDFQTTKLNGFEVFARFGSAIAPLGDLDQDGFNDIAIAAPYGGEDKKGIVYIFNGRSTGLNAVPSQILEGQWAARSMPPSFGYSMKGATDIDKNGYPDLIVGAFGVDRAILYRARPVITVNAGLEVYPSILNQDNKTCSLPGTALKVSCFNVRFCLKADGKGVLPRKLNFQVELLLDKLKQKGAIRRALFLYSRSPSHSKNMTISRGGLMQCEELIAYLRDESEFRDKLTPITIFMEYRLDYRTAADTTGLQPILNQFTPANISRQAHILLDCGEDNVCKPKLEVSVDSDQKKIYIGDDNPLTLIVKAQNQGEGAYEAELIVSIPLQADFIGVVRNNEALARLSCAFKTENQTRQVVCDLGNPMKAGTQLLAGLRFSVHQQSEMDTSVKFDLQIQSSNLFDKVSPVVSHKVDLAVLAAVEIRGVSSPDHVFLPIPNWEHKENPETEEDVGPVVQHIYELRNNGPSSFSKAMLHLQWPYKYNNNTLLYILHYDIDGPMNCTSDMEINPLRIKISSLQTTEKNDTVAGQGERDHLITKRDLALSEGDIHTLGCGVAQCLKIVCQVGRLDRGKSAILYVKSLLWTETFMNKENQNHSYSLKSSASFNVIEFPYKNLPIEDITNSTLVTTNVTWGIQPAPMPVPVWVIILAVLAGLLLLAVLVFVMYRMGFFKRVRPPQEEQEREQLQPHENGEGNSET
# Sequence (P18084 24-799): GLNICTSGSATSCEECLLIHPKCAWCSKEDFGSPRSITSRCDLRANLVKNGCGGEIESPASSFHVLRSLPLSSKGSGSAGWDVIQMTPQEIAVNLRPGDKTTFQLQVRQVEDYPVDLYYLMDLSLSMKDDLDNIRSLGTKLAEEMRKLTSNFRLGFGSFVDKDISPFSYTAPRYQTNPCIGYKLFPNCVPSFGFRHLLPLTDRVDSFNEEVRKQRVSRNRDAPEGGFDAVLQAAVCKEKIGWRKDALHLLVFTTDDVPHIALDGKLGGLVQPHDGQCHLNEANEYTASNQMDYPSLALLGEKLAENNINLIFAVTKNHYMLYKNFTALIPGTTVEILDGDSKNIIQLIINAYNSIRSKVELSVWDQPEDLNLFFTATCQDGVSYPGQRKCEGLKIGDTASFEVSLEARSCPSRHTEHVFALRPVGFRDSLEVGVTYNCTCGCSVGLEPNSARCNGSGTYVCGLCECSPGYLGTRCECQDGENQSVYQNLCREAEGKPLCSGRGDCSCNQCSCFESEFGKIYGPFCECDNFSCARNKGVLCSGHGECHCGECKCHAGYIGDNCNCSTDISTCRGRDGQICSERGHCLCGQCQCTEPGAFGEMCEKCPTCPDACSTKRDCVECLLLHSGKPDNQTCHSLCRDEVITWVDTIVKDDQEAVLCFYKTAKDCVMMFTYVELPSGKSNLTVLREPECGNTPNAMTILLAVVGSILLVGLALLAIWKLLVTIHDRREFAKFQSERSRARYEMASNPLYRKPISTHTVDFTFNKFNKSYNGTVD
# Assay Comment: Evaluation of integrin binding property (surface plasmon resonance, Biacore 3000, immobilized cyclic peptide)
# Assay Context: SPR, 25° C., HEPES buffer with 5 mM magnesium chloride, integrin 30-1,000 nM; read-out: Performance evaluation: Binding activity (dissociation constant between the cyclic peptide and human integrin αvβ5)
Starred links: 1 amine or outer side, 2 acyl side, 3 side chain; linkers in the order of their positions; H or OH if unused. Positions of bridges follow the written chain, without caps; N, C: chain ends. Non-standard residues stand in square brackets, D forms with d. Residues, ends and D or L forms follow the SMILES beside them. hCys = N[C@@H](CCS)C(=O)O; Dab = NCC[C@H](N)C(=O)O; X2 = O=C(C[*:1])[*:2]

// query Form field: reported Kd of C[C@H](NC(=O)[C@H](CCCCN)NC(=O)[C@H](CCCCN)NC(=O)[C@@H](N)CCCCN)C(=O)N[C@H]1CCSCC(=O)NCC[C@@H](C(=O)N[C@@H](CC(=O)O)C(=O)O)NC(=O)[C@H](CCCNC(=N)N)NC(=O)[C@H](Cc2ccccc2)NC(=O)[C@H](CC(N)=O)NC(=O)[C@H](CC(=O)O)NC(=O)CNC(=O)[C@H](CCCNC(=N)N)NC(=O)[C@@H]2CCCN2C(=O)[C@H](CCC(=O)O)NC1=O [Cyclic peptide 34, KKKA-(Hcy)-EPRGDNFR(Dab(acetyl))D] (H-KKKA[hCys]EPRGDNFR[Dab]D-OH; linker 5-14 via X2)
// result < 0.05 µM

// query So what does the record say about Kd for C[C@H](NC(=O)[C@H](CCCCN)NC(=O)[C@H](CCCCN)NC(=O)[C@@H](N)CCCCN)C(=O)N[C@H]1CCSCC(=O)NCC[C@@H](C(=O)N[C@@H](CC(=O)O)C(=O)O)NC(=O)[C@H](CC(=O)O)NC(=O)[C@H](Cc2ccc(O)cc2)NC(=O)[C@H](CC(N)=O)NC(=O)[C@H](CC(=O)O)NC(=O)CNC(=O)[C@H](CCCNC(=N)N)NC(=O)[C@@H]2CCCN2C(=O)[C@H](CCC(=O)O)NC1=O [Cyclic peptide 35, KKKA-(Hcy)-EPRGDNYD(Dab(acetyl))D] (H-KKKA[hCys]EPRGDNYD[Dab]D-OH; linker 5-14 via X2) ?
// result 0.1 to 0.2 µM

// query // lookup Kd for CC[C@H](C)[C@@H]1NC(=O)[C@@H](NC(=O)[C@H](CCCCN)NC(=O)[C@H](CCCCN)NC(=O)[C@@H](N)CCCCN)CCSCC(=O)NCC[C@@H](C(=O)N[C@@H](C)C(=O)O)NC(=O)[C@H](Cc2ccccc2)NC(=O)[C@H](CC(N)=O)NC(=O)[C@H](CC(=O)O)NC(=O)CNC(=O)[C@H](CCCNC(=N)N)NC(=O)[C@@H]2CCCN2C1=O [Cyclic peptide 10, KKK-(Hcy)-IPRGDNF(Dab(acetyl))A] (H-KKK[hCys]IPRGDNF[Dab]A-OH; linker 4-12 via X2)
// result 0.05 to 0.1 µM

// query Entry C[C@H](NC(=O)[C@@H]1CCNC(=O)CSCC[C@H](NC(=O)[C@H](CCCCN)NC(=O)[C@H](CCCCN)NC(=O)[C@@H](N)CCCCN)C(=O)N[C@@H](Cc2ccc(O)cc2)C(=O)N2CCC[C@H]2C(=O)N[C@@H](CCCNC(=N)N)C(=O)NCC(=O)N[C@@H](CC(=O)O)C(=O)N[C@@H](CC(N)=O)C(=O)N[C@@H](Cc2ccccc2)C(=O)N[C@@H](CCCNC(=N)N)C(=O)N1)C(=O)O [Cyclic peptide 24, KKK-(Hcy)-YPRGDNFR(Dab(acetyl))A] (H-KKK[hCys]YPRGDNFR[Dab]A-OH; linker 4-13 via X2) : reported Kd = ?
// result < 0.05 µM
